Biological target: Histone-lysine N-methyltransferase EHMT2 (Homo sapiens, UniProt Q96KQ7)
Test: Inhibition of G9a in human HCT116 cells assessed as reduction of H3K9me2 after 48 hrs by In-Cell Western assay
Assay type: cell-based, HCT-116
quantity kind: IC50 (nM)
One number for each entry, in nM.

Data request, read-out IC50, for COc1cc2c(NC3CCN(CC4CCCCC4)CC3)nc(N3CCCN(C(C)C)CC3)nc2cc1OCCCN1CCCCC1
51

---

Give log10 of IC50 for every item shown.
Biological target: Histone-lysine N-methyltransferase EHMT2 (Homo sapiens, UniProt Q96KQ7)
Sequence (Q96KQ7 whole entry): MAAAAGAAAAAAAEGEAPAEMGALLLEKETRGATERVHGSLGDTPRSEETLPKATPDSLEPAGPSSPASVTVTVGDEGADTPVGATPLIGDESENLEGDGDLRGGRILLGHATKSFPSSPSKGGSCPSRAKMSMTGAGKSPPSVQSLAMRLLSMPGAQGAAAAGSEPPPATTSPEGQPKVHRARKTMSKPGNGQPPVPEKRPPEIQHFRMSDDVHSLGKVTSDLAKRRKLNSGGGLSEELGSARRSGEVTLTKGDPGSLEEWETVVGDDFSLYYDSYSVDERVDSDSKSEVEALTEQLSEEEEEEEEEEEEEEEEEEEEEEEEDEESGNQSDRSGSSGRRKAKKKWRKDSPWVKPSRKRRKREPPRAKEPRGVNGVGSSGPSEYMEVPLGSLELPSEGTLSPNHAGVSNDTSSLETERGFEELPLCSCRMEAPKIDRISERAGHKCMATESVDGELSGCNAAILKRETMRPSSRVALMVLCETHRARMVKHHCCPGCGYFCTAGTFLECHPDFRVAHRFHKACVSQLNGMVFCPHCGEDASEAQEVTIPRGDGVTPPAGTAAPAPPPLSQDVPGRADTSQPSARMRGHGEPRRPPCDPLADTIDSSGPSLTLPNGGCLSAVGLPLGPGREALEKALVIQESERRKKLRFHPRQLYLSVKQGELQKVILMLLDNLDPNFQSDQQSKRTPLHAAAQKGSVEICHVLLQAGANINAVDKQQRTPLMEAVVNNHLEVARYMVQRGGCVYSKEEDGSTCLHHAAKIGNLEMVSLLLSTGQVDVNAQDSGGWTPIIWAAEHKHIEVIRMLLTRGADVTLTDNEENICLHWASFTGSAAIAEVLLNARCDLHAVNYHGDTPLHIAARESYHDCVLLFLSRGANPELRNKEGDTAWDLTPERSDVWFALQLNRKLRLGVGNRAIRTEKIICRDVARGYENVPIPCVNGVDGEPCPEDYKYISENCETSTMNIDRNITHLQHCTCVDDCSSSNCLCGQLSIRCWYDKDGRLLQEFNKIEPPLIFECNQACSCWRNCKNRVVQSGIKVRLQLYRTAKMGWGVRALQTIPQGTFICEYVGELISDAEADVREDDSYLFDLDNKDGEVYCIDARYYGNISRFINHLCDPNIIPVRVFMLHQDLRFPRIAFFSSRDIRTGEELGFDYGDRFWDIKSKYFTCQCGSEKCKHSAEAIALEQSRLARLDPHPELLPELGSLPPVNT
Assay: Inhibition of G9a in human MDA-MB-231 cells assessed as reduction of H3K9me2 after 48 hrs by In-Cell Western assay
Format: cell-based
A value of 2 here means IC50 of 100 in nM, since values are log10.

# compound smiles, log10 of IC50
rows = [
    ("COc1cc2c(NC3CCN(C(C)C)CC3)nc(N3CCCN(C4CCCCC4)CC3)nc2cc1OCCCN1CCCC1", 2.00),
]

Could I get log10 of IC50 for every one of these entries?
1. COc1cc2c(NC3CCN(C(C)C)CC3)nc(N3CCCN(Cc4ccccc4)CC3)nc2cc1OCCCN1CCCC1
2. COc1cc2c(NC3CCN(C(C)C)CC3)nc(N3CCCCCC3)nc2cc1OCCCN1CCCCC1
3. COc1cc2c(NC3CCN(C(C)C)CC3)nc(N3CCCN(C(C)C)CC3)nc2cc1OCCCN1CCCC1
4. CCN1CCCN(c2nc(NC3CCN(C(C)C)CC3)c3cc(OC)c(OCCCN4CCCC4)cc3n2)CC1
5. COc1cc2c(NC3CCN(C4CCCCC4)CC3)nc(N3CCCN(C)CC3)nc2cc1OCCCN1CCCCC1

[1.76, 2.38, 2.53, 2.67, 1.75]
